Biological target: the molecule itself
pKd: −log10 of the molar value.
Readout name: pKd

q: What pKd value was documented for this protein, C.Esp1396I controller protein (wild type) (natural protein) GSHMESFLLSKVSFVIKKIRLEKGMTQEDLAYKSNLDRTYISGIERNSRNLTIKSLELIMKGLEVSDVVFFEMLIKEILKHD ?
a: ~6.22
